Measurement Notes: soluble on expression in E. coli; label from the status in PepcDB or PDB records
Quantity Kind: soluble on expression in E. coli

input_sequence=MKQYLELMQKVLDEGTQKNDRTGTGTLSIFGHQMRFNLQDGFPLVTTKRCHLRSIIHELLWFLQGDTNIAYLHENNVTIWDEWADENGDLGPVYGKQWRAWPTPDGRHIDQITTVLNQLKNDPDSRRIIVSAWNVGELDKMACAPSHAFFQFYVADGKLSCQLYQRSCDVFLGLPFNIASYALLVHMMAQQCDLEVGDFVWTGGDTHLYSNHMDQTHLQLSREPRPLPKLIIKRKPESIFDYRFEDFEIEGYDPHPGIKAPVAI quantity_kind="soluble on expression in E. coli" result=soluble
input_sequence=MSLNQSYFNLLGNITWLWMNSSLHKEWSCELLARNVIPAIENEQYMLLIDNGIPIAYCSWADLNLETEVKYIKDINSLTPEEWQSGDRRWIIDWVAPFGHSQLLYKKMCQKYPDMIVRSIRFYPKQKELGKIAYFKGGKLDKKTAKKRFDTYQEELATALKNEFNFIKKEGHHHHHH quantity_kind="soluble on expression in E. coli" result=soluble
